- TESTED_SYSTEM: Stimulator of interferon genes protein (Homo sapiens, UniProt Q86WV6)
- Sequence (Q86WV6 whole entry): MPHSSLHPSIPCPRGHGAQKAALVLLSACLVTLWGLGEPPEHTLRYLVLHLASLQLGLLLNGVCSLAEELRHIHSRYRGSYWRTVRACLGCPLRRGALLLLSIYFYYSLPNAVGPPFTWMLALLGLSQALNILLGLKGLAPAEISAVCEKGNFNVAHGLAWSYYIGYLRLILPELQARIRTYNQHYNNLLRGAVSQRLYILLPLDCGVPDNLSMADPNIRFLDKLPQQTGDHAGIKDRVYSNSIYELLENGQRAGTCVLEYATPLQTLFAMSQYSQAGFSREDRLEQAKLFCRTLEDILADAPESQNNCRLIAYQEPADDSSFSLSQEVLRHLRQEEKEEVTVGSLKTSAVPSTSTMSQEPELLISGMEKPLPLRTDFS
- ASSAY: Activation of wild-type human STING expressed in digitonin treated HEK293T cells co-expressing IRF3-activated ISRE assessed as IRF3 reporter activation by luciferase reporter gene assay
- Format: cell-based
pEC50: −log10 of the molar value.
Reported pEC50 is given for each of the following compounds.

SMILES_DATA | pEC50
Nc1ncnc2c1ncn2[C@@H]1O[C@@H]2COP(=O)(O)O[C@H]3[C@@H](F)[C@H](n4cnc5c(N)ncnc54)O[C@@H]3COP(=O)(O)O[C@H]2[C@H]1F | 7.70
Nc1ncnc2c1ncn2[C@@H]1O[C@@H]2CO[P@@](=O)(S)O[C@H]3[C@@H](F)[C@H](n4cnc5c(N)ncnc54)O[C@@H]3COP(=O)(O)O[C@H]2[C@H]1F | 7.40
Nc1ncnc2c1ncn2[C@@H]1O[C@@H]2CO[P@](=O)(S)O[C@H]3[C@@H](F)[C@H](n4cnc5c(N)ncnc54)O[C@@H]3COP(=O)(O)O[C@H]2[C@H]1F | 8.15
Nc1ncnc2c1ncn2[C@@H]1O[C@@H]2CO[P@@](=O)(S)O[C@H]3[C@@H](F)[C@H](n4cnc5c(N)ncnc54)O[C@@H]3CO[P@](=O)(S)O[C@H]2[C@H]1F | 7.70
Nc1ncnc2c1ncn2[C@@H]1O[C@@H]2CO[P@@](=O)(S)O[C@H]3[C@@H](F)[C@H](n4cnc5c(N)ncnc54)O[C@@H]3CO[P@@](=O)(S)O[C@H]2[C@H]1F | 7.40
Nc1ncnc2c1ncn2[C@@H]1O[C@@H]2CO[P@](=O)(S)O[C@H]3[C@@H](F)[C@H](n4cnc5c(N)ncnc54)O[C@@H]3CO[P@](=O)(S)O[C@H]2[C@H]1F | 6.77
